These data points were gathered from the supplement of paper PMC6555819.

System: THRa:RXRa (NR concentration 90 nM, RXRa partner concentration 90 nM)
Assay: PBM binding z-score (relative to random genomic background probes); higher = stronger binding; sequences stand for … in GC…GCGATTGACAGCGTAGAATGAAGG
Label rule, in plain words: PBM binding z-score of 2 and up is YES, under 2 is NO.

1) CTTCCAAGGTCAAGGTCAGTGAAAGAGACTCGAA: YES
2) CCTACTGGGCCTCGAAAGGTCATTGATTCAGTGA: YES
3) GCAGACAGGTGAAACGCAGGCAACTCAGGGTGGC: NO
4) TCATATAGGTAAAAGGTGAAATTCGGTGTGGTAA: NO
5) ATATGTAGGTTAAGGGTAATTCAGGTTGGTTCGC: YES
6) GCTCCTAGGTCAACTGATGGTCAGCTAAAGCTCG: YES
7) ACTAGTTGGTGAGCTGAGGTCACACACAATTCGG: YES
8) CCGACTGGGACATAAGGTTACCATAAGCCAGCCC: YES
9) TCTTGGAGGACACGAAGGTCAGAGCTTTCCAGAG: YES
10) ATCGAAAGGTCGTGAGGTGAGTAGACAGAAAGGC: YES
11) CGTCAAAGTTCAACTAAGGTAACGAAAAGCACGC: YES
12) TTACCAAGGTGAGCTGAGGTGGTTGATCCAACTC: YES
13) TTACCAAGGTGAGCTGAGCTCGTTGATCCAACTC: NO
14) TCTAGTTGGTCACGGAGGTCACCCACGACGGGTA: YES
15) CGAACGAGGGCATTAGTTGATAGCAAATGCCGAT: NO
16) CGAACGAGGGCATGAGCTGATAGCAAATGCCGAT: NO
17) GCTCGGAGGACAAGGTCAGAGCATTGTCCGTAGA: YES
18) ATCTCTATGTAACAAGTTCAGTGAAAGAGAGGAC: NO
19) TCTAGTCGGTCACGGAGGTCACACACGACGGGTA: YES
20) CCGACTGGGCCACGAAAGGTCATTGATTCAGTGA: YES
21) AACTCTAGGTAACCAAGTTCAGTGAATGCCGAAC: NO
22) ATCGAAAGGTCGTGAGTTGAGTATACAGAAAGGC: YES
23) CAAACTAGGTCAGGAAAGGTCAAAGTCGAATGAC: YES
24) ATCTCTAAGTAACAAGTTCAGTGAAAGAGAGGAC: NO
25) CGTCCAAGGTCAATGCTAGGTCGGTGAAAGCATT: YES
26) GGAACGAGGGCAAAGATGATAGCATCTGTCGACG: NO
27) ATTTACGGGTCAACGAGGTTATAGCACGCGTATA: YES
28) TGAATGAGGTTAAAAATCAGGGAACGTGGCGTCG: NO
29) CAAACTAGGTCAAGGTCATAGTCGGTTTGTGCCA: YES
30) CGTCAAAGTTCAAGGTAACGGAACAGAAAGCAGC: YES
31) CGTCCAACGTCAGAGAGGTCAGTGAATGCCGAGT: YES
32) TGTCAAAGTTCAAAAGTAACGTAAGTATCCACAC: NO
33) CAGCCTAGGTCAGGGCCAATATAGGAGGAACGTT: YES
34) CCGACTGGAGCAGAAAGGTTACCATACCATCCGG: NO
35) TCTGCTAGGTCAGTTGATCAGCTAACGAGCTGCC: NO
36) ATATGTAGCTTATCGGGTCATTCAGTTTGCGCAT: YES
37) GATACAGGGTCAGCTAGAGGCCCGAGTATGGAAA: YES
38) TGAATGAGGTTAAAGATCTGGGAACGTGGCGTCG: YES
39) ATACCAAGGTGATCGTGAGGTCGGTGATACTAAC: YES
